tested on: fruit fly (Drosophila melanogaster) adults; experiment: Adult fruit fly mortality on artificial diet (DROSME); format: in vivo; settings: 72 h, 4000 μg/ml, mortality three days after treatment, read-out: DROSME: % mortality against adult fruit fly on artificial diet
Catalogue of molecules with associated mortality at 4000 µg/mL

FC(F)(F)c1ccccc1CCN1CCN(Cc2csc3ccc(Cl)cc23)CC1 [Compound 88]
1 to 25%
COc1ccc(CN2CCN(CCc3ccccc3C(F)(F)F)CC2)cc1Cl [Compound 95]
26 to 49%
CC(CN1CCN(Cc2cc3c(cc2Cl)OCO3)CC1)c1ccccc1 (stereo not drawn) [Compound 333]
50 to 100%
O=C(c1ccco1)N1CCN(Cc2ccccc2)CC1 [Compound 34]
1 to 25%
Clc1cc2c(cc1CN1CCN(CCOc3ccccc3)CC1)OCO2 [Compound 103]
1 to 25%
COc1cc(CN2CCN(CCc3ccccc3C(F)(F)F)CC2)c([N+](=O)[O-])cc1OC [Compound 99]
1 to 25%
FC(F)(F)c1ccc(CN2CCN(CCc3ccccc3C(F)(F)F)CC2)o1 [Compound 87]
1 to 25%
FC(F)(F)c1ccccc1CCN1CCN(CC2COc3ccccc3O2)CC1 (stereo not drawn) [Compound 100]
26 to 49%

Query :: Look up mortality at 4000 µg/mL: O=C(c1coc2ccccc12)N1CCN(Cc2ccccc2)CC1 [Compound 50]
Result :: 1 to 25%

Query :: Could you share which mortality at 4000 µg/mL value was measured for CC(=O)c1ccccc1C(=O)N1CCN(CCc2ccccc2C(F)(F)F)CC1 [Compound 105] ?
Result :: 1 to 25%

Query :: Item under review: O=C(OCc1ccccc1)N1CCN(C(=O)c2ccc3ccccc3n2)CC1 [Compound 159] . Reported mortality at 4000 µg/mL?
Result :: 1 to 25%

Query :: Record request: mortality at 4000 µg/mL value, item Clc1cc2c(cc1CN1CCN(CCC3CCCCC3)CC1)OCO2 [Compound 102]
Result :: 1 to 25%

Query :: Tell me the measured mortality at 4000 µg/mL of FC(F)(F)c1ccccc1CCN1CCN(Cc2ccc3ccccc3c2)CC1 [Compound 80] , please.
Result :: 1 to 25%

Query :: Name the recorded mortality at 4000 µg/mL for Clc1cc2c(cc1CN1CCN(CCc3ccccc3)CC1)OCO2 [Compound 104] .
Result :: 50 to 100%

Query :: Item O=C(c1ccc2ccccc2n1)N1CCN(CCc2ccccc2C(F)(F)F)CC1 [Compound 156] has what recorded mortality at 4000 µg/mL?
Result :: 1 to 25%

Query :: What value of measured mortality at 4000 µg/mL is listed for O=C(c1ccccc1)c1ccc(CN2CCN(C(=O)C3CC3)CC2)cc1 [Compound 321] ?
Result :: 1 to 25%

Query :: For the molecule shown here, O=C(OCc1ccccc1)N1CCN(Cc2ccc(Cl)nc2)CC1 [Compound 192] , give the reported mortality at 4000 µg/mL.
Result :: 1 to 25%

Query :: Fill in the blank: the reported mortality at 4000 µg/mL of FC(F)(F)c1ccccc1CCN1CCN(Cc2ccccc2Cl)CC1 [Compound 101] is ____.
Result :: 1 to 25%

Query :: Returns the measured mortality at 4000 µg/mL for the input molecule. Input: Cc1nn(C)c2sc(C(=O)N3CCN(CCc4ccccc4C(F)(F)F)CC3)cc12 [Compound 160]
Result :: 1 to 25%

Query :: # lookup: mortality at 4000 µg/mL of Cc1nn(C)c2sc(C(=O)N3CCN(C(C)c4ccccc4)CC3)cc12 (stereo not drawn) [Compound 162]
Result :: 26 to 49%

Query :: Which mortality at 4000 µg/mL is reported for this molecule? CC(C)(C)OC(=O)N1CCN(CCc2ccccc2C(F)(F)F)CC1 [Compound 96]
Result :: 1 to 25%

Query :: Entry O=C(c1ccc(-c2ccccn2)s1)N1CCN(CCc2ccccc2C(F)(F)F)CC1 [Compound 126] : reported mortality at 4000 µg/mL = ?
Result :: 1 to 25%

Query :: // mortality at 4000 µg/mL lookup, key: c1ccc(OCCN2CCN(Cc3ccccc3-c3ccccc3)CC2)cc1 [Compound 92]
Result :: 26 to 49%

Query :: # query: mortality at 4000 µg/mL of entry COC(=O)c1cccc(CN2CCN(CCc3ccccc3)CC2)c1 [Compound 90]
Result :: 26 to 49%

Query :: What measured mortality at 4000 µg/mL goes with COC(=O)c1cccc(CN2CCN(CCOc3ccccc3)CC2)c1 [Compound 303] ?
Result :: 26 to 49%

Query :: State the recorded mortality at 4000 µg/mL for this entry: O=C(OCc1ccccc1)N1CCN(C(=O)c2cccs2)CC1 [Compound 146]
Result :: 1 to 25%

Query :: Which value of mortality at 4000 µg/mL has been reported for FC(F)(F)c1ccccc1CCN1CCN(Cc2cc3c(cc2Cl)OCO3)CC1 [Compound 86] in the records?
Result :: 1 to 25%
